protocol_notes: BET inhibitor-based combinations targeting novel dependencies in MECOM-rearranged (r) AML: UCSD-AML1 cell line (AID 2202235); note: nearly all actives have a fitted effect of over 40% in size
measurement_conditions: UCSD-AML1 AML cells viability, CellTiter-Glo, 48 h; series mostly up to 46 µM
Results filed as inconclusive are left out. Active and inactive are the calls of the source. Calls come from the whole dose curve; as a rule, active = well fitted inhibition curve with a large enough effect; inconclusive = small, poorly fitted or top-dose-only effect; inactive = no such curve, though single readings can be large or run the other way.
Classes used: active, inactive

molecule | group
COc1cc(C)c(Sc2cnc(NC(=O)c3ccc(CNC(C)C(C)C)cc3)s2)cc1C(=O)N1CCN(C(C)=O)CC1 (stereo unspecified) | active
Cc1csc(NC(=O)c2sc3nc4c(c(C(F)(F)F)c3c2N)CCC4)n1 | inactive
C=CCn1c(=O)c2cnc(Nc3ccc(N4CCN(C)CC4)cc3)nc2n1-c1cccc(C(C)(C)O)n1 | active
COc1cc(Nc2ncc(F)c(Nc3ccc4c(n3)NC(=O)C(C)(C)O4)n2)cc(OC)c1OC | active
O=C1C(c2c(O)[nH]c3ccccc23)=Nc2ccccc21 | inactive
CC1(CN2CCC(n3c(=O)[nH]c4ccccc43)CC2)OCc2ccccc2-n2cccc21 (stereo unspecified) | inactive

FYI, the data here is from PubChem BioAssay (NCATS).
